Target under test: Gal3S(b1-4)Glc6S
Assay explanation: glycan array binding signal (z-score within array); higher = stronger binding
Experimental parameters: glycan notation: IUPAC condensed, linker removed
About 410 targets per protein were measured; listed, in parts, are those with the strongest signals and a random draw of the rest.
Reported metric: glycan array binding signal (z-score)
Respond with the number and no other words.

query: Give the measured glycan array binding signal (z-score) of rPitB (Streptococcus pneumoniae), A0A0I7U739 (protein) MSEIEIINAKKIYHDVPVIENLNITIPKGSLFTLLGASGCGKTTLLRMIAGFNSIKDGEFYFDDTKINNMEPSKRNIGLVFQNYAIFPHLTVRDNVAFGLMQKKVPKEELIQQTNKYLELMQIAQYAD .
result: 0.112
